Data origin: patent US20250223303A1

This listing pairs molecules with measured MIC of meropenem in combination with compound, Escherichia coli ARLG-2829 NDM-5, OXA-1.
System: Escherichia coli ARLG 2829
TEST DESCRIPTION: MIC test of compounds in combination with antibiotics, Escherichia coli ARLG 2829
REPORTED CONDITIONS: Meropenem + compound (8 μg/mL)
Reply numerically in µg/mL, unit not repeated.

Before answering, review these 3 worked examples.
CC(Sc1ccc2c(c1C(=O)O)OB(O)C1CC21)C1CCOCC1 (single isomer, unassigned) [Compound 17-a] :: 8
CC(Sc1ccc2c(c1C(=O)O)OB(O)C1CC21)C1CC1 (single isomer, unassigned) [Compound 16-c] :: 4
CC(Sc1ccc2c(c1C(=O)O)OB(O)C1CC21)C1CC1 (single isomer, unassigned) [Compound 16-b] :: 16

Lab note: measured MIC of meropenem in combination with compound, Escherichia coli ARLG-2829 NDM-5, OXA-1 of O=C(O)c1c(SCCN2CCOCC2)ccc2c1OB(O)C1CC21 (single isomer, unassigned) [Compound 15-b] was 1

Lab note: measured MIC of meropenem in combination with compound, Escherichia coli ARLG-2829 NDM-5, OXA-1 of C[C@H](Sc1ccc2c(c1C(=O)O)OB(O)[C@@H]1C[C@H]21)C1CN(C)C1 [Compound 20-a] was 16

Lab note: measured MIC of meropenem in combination with compound, Escherichia coli ARLG-2829 NDM-5, OXA-1 of CC(Sc1ccc2c(c1C(=O)O)OB(O)C1CC21)C1CCOCC1 (single isomer, unassigned) [Compound 17-b] was 4

====

System: Acinetobacter baumannii ARLG-1791 OXA-23
TEST DESCRIPTION: MIC test of compounds in combination with antibiotics, Acinetobacter baumannii ARLG-1791
REPORTED CONDITIONS: Meropenem + compound (8 μg/mL)
MEASURED ENDPOINT: MIC of meropenem in combination with compound, Acinetobacter baumannii ARLG-1791 OXA-23 (µg/mL)
Reply numerically in µg/mL, unit not repeated.

Before answering, review these 5 worked examples.
O=C(O)c1c(SCCN2CCOCC2)ccc2c1OB(O)C1CC21 (single isomer, unassigned) [Compound 15-a] :: 8
CC(Sc1ccc2c(c1C(=O)O)OB(O)C1CC21)C1CCOCC1 (single isomer, unassigned) [Compound 17-b] :: 16
C[C@H](Sc1ccc2c(c1C(=O)O)OB(O)[C@@H]1C[C@H]21)[C@@H]1CCCO1 [Compound 18-a] :: 8
O=C(O)c1c(SCCN2CCOCC2)ccc2c1OB(O)C1CC21 (single isomer, unassigned) [Compound 15-b] :: 4
NC1COCC1Sc1ccc2c(c1C(=O)O)OB(O)C1CC21 (single isomer, unassigned) [Compound 10_P1] :: 4

Param item: C[C@H](Sc1ccc2c(c1C(=O)O)OB(O)[C@@H]1C[C@H]21)C1CN(C)C1 [Compound 20-a] ; param system: Acinetobacter baumannii ARLG-1791 OXA-23; output MIC of meropenem in combination with compound, Acinetobacter baumannii ARLG-1791 OXA-23: 2

Param item: NC1COCC1Sc1ccc2c(c1C(=O)O)OB(O)C1CC21 (single isomer, unassigned) [Compound 10_P2] ; param system: Acinetobacter baumannii ARLG-1791 OXA-23; output MIC of meropenem in combination with compound, Acinetobacter baumannii ARLG-1791 OXA-23: 4

Param item: C[C@@H](Sc1ccc2c(c1C(=O)O)OB(O)[C@H]1C[C@@H]21)[C@@H]1CCCO1 [Compound 18-d] ; param system: Acinetobacter baumannii ARLG-1791 OXA-23; output MIC of meropenem in combination with compound, Acinetobacter baumannii ARLG-1791 OXA-23: 8
